Listing of entries alongside the reported log10 IC50.
- System: IL-17 production by CD4 T cells
- ASSAY TEXT: Human Th17 assay (IL-17 production by CD4 T cells under Th17 differentiation)
- Assay type: cell-based
- CONDITION: Homo sapiens, CD4+ T, 72 h, human CD4+ T cells, IL-17 after 3 days; read-out: Human Th17 Assay, IC50 μM
Give log10 of IC50, with IC50 taken in µM.

These recorded examples may help you get a feel for the data.
[
  {
    "COMPOUND": "COc1nc2ccc(C(O)(c3cncn3C)C3CCN(C(C)=O)CC3)cc2c(Cl)c1Cc1ccc(-n2cccn2)cc1 (single isomer, unassigned) [Example 60B]",
    "MEASURED VALUE": -0.77
  },
  {
    "COMPOUND": "Cn1cncc1C(O)(c1ccc(C(F)(F)F)nc1)c1ccc2nc(C#N)c(Cc3ccc(-n4cccn4)cc3)c(C#N)c2c1 (centres unmarked) [Example 72B]",
    "MEASURED VALUE": -1.60
  }
]

Q: # get_value(readout='log10 IC50', item= COc1nc2ccc(C(O)(c3sc(C)nc3C)c3cnnn3C)cc2c(Cl)c1Cc1ccc(C(F)(F)F)cc1 (single isomer, unassigned) [Example 79B] )
Result: -1.28

Q: Endpoint output: log10 IC50 of Cc1ccc(C(O)(c2ccc3nc(C#N)c(Cc4ccc(C(F)(F)F)cc4)c(C#N)c3c2)c2cnnn2C)c(C)n1 (single isomer, unassigned) [Example 88C] . Value?
Result: -2.55

###

log10(Kd) reference
- TESTED TARGET: human RORγt ligand binding domain (RORγt LBD) (Homo sapiens (Human))
- ASSAY TEXT: RORγt ThermoFluor assay (thermal shift binding affinity)
- CONDITION: estimated from thermal shift
- Method: This approach is applicable to a wide variety of systems, and rigorous in theoretical interpretation through quantitation of equilibrium binding constants (KD). […] Bar-coded assay plates are robotically loaded onto a thermostatically controlled PCR-type thermal block and then heated at a typical ramp-rate of 1° C./min for all experiments. […] Images were collected at each temperature, and the sum of the pixel intensity in a given area of the assay plate was recorded versus temperature. […]
Heads up, the numbers here are log10 of Kd in nM units.

Q: Fill in the blank: the reported log10(Kd) of OC(c1cccnc1)(c1cccc(Cl)c1)c1ccc2nc(Cl)c(Cc3cccs3)c(Cl)c2c1 (stereo not drawn) is ____.
Result: 1.52

Q: Which log10(Kd) reading was recorded for the compound COc1nc2ccc(C(O)(c3sc(C)nc3C)c3cnnn3C)cc2c(Cl)c1Cc1ccc(C(F)(F)F)cc1 (stereo not drawn) [Example 79C] ?
Result: -1.62

###

- TESTED TARGET: human RORγt ligand binding domain (RORγt LBD) (Homo sapiens (Human), UniProt P51449)
- Sequence (P51449 other isoform, or with tags, fused parts or gaps): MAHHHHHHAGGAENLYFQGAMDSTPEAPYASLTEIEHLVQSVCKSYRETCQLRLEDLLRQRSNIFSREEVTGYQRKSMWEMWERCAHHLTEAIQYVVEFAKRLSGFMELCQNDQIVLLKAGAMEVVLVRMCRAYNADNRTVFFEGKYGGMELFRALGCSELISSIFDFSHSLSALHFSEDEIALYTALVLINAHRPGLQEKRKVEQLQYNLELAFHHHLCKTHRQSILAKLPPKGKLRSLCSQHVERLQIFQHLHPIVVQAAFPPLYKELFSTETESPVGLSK
- ASSAY TEXT: RORγt ThermoFluor assay (thermal shift binding affinity)
- CONDITION: estimated from thermal shift
Quick list: Kd per entry.
Record the value in µM, omitting the unit from your answer.

[
  {
    "COMPOUND": "Cn1cncc1C(O)(c1ccc(C(F)(F)F)nc1)c1ccc2nc(N3CCC3)c(Cc3ccc(-n4cccn4)cc3)c(Cl)c2c1 (single isomer, unassigned) [Example 68C]",
    "Kd / µM": 0.03
  }
]

Q: # returns recorded Kd (system: human RORγt ligand binding domain (RORγt LBD) (Homo sapiens (Human), UniProt P51449)) for COc1ccc(Cc2c(OC)nc3ccc(C(O)(c4ccc(Cl)cc4)c4cncn4C)cc3c2Cl)cc1 (stereo not drawn)
Result: 0.031

Q: Query the reported Kd for human RORγt ligand binding domain (RORγt LBD) (Homo sapiens (Human), UniProt P51449); item: COc1nc2ccc(C(O)(c3ccccc3)C3CCN(C(C)=O)CC3)cc2c(Cl)c1Cc1ccc(-n2cccn2)cc1 (single isomer, unassigned) [Example 83B]
Result: 0.0047

###

- TESTED TARGET: human RORγt LBD (Homo sapiens (Human), UniProt P51449)
- Sequence (P51449 258-518): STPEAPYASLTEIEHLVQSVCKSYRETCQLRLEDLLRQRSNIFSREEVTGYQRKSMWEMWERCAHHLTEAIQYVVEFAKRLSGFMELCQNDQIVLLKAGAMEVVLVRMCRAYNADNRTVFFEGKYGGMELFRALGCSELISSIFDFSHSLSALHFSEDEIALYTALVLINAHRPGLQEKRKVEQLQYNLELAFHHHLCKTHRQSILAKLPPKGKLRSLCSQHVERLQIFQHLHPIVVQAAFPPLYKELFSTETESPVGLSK
- ASSAY TEXT: RORγt reporter assay (GAL4-RORγt LBD luciferase in HEK293T cells)
- Assay type: cell-based
- CONDITION: HEK-293T, read-out: RORγt reporter Assay, % inhibition @ 6 μM, HEK293T cells, 6 μM
Listed here are compounds together with their documented inhibition at 6 µM.
Entry rule: numbers only, all in %.

As a guide, the following entries are already answered.
[
  {
    "COMPOUND": "COc1nc2ccc(C(O)(c3ccc(Cl)cc3)c3cncn3C)cc2c(OC)c1Cc1ccc(-n2cccn2)cc1 (stereo not drawn)",
    "MEASURED VALUE": 101
  },
  {
    "COMPOUND": "COc1nc2ccc(C(O)(c3ccc(C)nc3C)c3cnnn3C)cc2c(Cl)c1Cc1ccc(C(F)(F)F)cc1 (single isomer, unassigned) [Example 77B]",
    "MEASURED VALUE": 98
  },
  {
    "COMPOUND": "Cn1cncc1C(O)(c1ccc(Cl)cc1)c1ccc2nc(O)c(Cc3ccc(-n4cccn4)cc3)c(Cl)c2c1 (stereo not drawn) [Example 55A]",
    "MEASURED VALUE": 94
  },
  {
    "COMPOUND": "CNC(=O)c1nc2ccc(C(O)(c3ccc(F)cc3)c3cncn3C)cc2c(C(F)(F)F)c1Cc1ccccc1 (stereo not drawn)",
    "MEASURED VALUE": 98
  },
  {
    "COMPOUND": "COc1nc2c(C)cc(C(O)(c3ccc(Cl)cc3)c3cncn3C)cc2c(Cl)c1Cc1ccc(-n2cccn2)cc1 (single isomer, unassigned) [Example 28B]",
    "MEASURED VALUE": 90
  }
]

Q: inhibition at 6 µM lookup needed for COc1ccc(C(O)(c2cccnc2)c2ccc3nc(Cl)c(Cc4ccc(-n5cccn5)cc4)c(Cl)c3c2)cc1 (stereo not drawn) , thanks.
Result: 102

Q: Can you look up the measured inhibition at 6 µM of COc1ccc(Cc2c(Cl)nc3ccc(C(O)(c4ccc(Cl)cc4)c4cncn4C)cc3c2Cl)cc1 (stereo not drawn) for me?
Result: 77

Q: For the compound COc1nc2ccc(C(O)(c3ccc(C(F)(F)F)nc3)c3cncn3C)cc2c(C#N)c1Cc1ccc(-n2cccn2)cc1 (single isomer, unassigned) [Example 73B] , what inhibition at 6 µM is on record?
Result: 97

Q: What value of measured inhibition at 6 µM is listed for CCc1nc2ccc(C(O)(c3cnnn3C)C3CN(C(=O)OC(C)(C)C)C3)cc2c(Cl)c1Cc1ccc(C(F)(F)F)cc1 (stereo not drawn) ?
Result: 102

Q: What does the data say about its inhibition at 6 µM? Entry: COc1nc2ccc(C(O)(c3ccc(Cl)cc3)c3cncn3C)cc2c(Cl)c1Cc1ccc(-n2cncn2)cc1 (single isomer, unassigned) [Example 64B]
Result: 101

Q: Fill blank: measured inhibition at 6 µM of the compound COc1nc2ccc(C(O)(c3ccc(Cl)cc3)c3cncn3C)cc2c(C#N)c1Cc1ccc(-n2cccn2)cc1 (stereo not drawn) is ____.
Result: 103

Q: Which measured inhibition at 6 µM value corresponds to OC(c1cccnc1)(c1cccc(Cl)c1)c1ccc2nc(Cl)c(Cc3ccc(F)cc3)c(Cl)c2c1 (stereo not drawn) ?
Result: 30

Q: For the compound shown here, CCN(CC)c1nc2ccc(C(O)(c3ccc(C(F)(F)F)nc3)c3cncn3C)cc2c(C#N)c1Cc1ccc(-n2cccn2)cc1 (single isomer, unassigned) [Example 74B] , give the reported inhibition at 6 µM.
Result: 95

Q: Look up inhibition at 6 µM: CS(=O)(=O)c1ccc(Cc2c(Cl)nc3ccc(C(O)(c4cccnc4)c4cccc(Cl)c4)cc3c2Cl)cc1 (stereo not drawn)
Result: 103

Q: Data request, read-out inhibition at 6 µM, for Cn1cc(C(O)(c2ccc(Cl)cc2)c2ccc3nc(Cl)c(Cc4ccccc4)c(Cl)c3c2)cn1 (stereo not drawn)
Result: 77

###

Here, each record is paired with measured IC50 data.
- System: IL-17 production by CD4 T cells
- ASSAY TEXT: Human Th17 assay (IL-17 production by CD4 T cells under Th17 differentiation)
- Format: cell-based
- CONDITION: Homo sapiens, CD4+ T, 72 h, human CD4+ T cells, IL-17 after 3 days; read-out: Human Th17 Assay, IC50 μM
The response must be a number in µM with no trailing unit.

Please review the entries below; each comes with its answer.
[
  {
    "COMPOUND": "CCOc1nc2ccc(C(O)(c3cncs3)c3cncn3C)cc2c(Cl)c1Cc1ccc(-n2cccn2)cc1 (stereo not shown)",
    "TESTED TARGET": "IL-17 production by CD4 T cells",
    "IC50 (µM)": 0.054
  },
  {
    "COMPOUND": "CCc1nc2ccc(C(O)(c3cnnn3C)C3CN(C(C)=O)C3)cc2c(Cl)c1Cc1ccc(C(F)(F)F)cc1 (single isomer, unassigned) [Example 90B]",
    "TESTED TARGET": "IL-17 production by CD4 T cells",
    "IC50 (µM)": 0.012
  },
  {
    "COMPOUND": "COc1nc2ccc(C(O)(c3cnc(C)n3C)c3cnc(C)n3C)cc2c(Cl)c1Cc1ccc(C(F)(F)F)cc1",
    "TESTED TARGET": "IL-17 production by CD4 T cells",
    "IC50 (µM)": 0.01
  }
]

Q: Fill in: IC50 of COc1nc2ccc(C(O)(c3ccc(C#N)cc3)c3cncn3C)cc2c(C#N)c1Cc1ccc(-n2cccn2)cc1 (single isomer, unassigned) [Example 76C] is ___
Result: 0.033
